# assay summary: Drug recovery in feces of po dosed rat
# Assay type: ADME, organism-based
# condition info: faeces, read-out: Drug recovery
property name: dose excreted (%)
Quick reminder: number only, in %, skip the unit.

Requested field: dose excreted. Item: COC(=O)N[C@H](C(=O)N[C@@H](Cc1ccccc1)[C@@H](O)CN(Cc1ccc(-c2ccccn2)cc1)NC(=O)[C@@H](NC(=O)OC)C(C)(C)C)C(C)(C)C [ATAZANAVIR] 39

* * *

# assay summary: Cmin in cannulated Sprague-Dawley rat assessed as atazanavir level at 3 mg/kg equiv of atazanavir administered orally measured after 24 hrs by UPLC/MS/MS analysis
# Format: ADME, organism-based
# condition info: in vivo, po, read-out: Cmin
property name: concentration (nM)
Quick reminder: number only, in nM, skip the unit.

Requested field: concentration. Item: `COC(=O)N[C@H](C(=O)N[C@@H](Cc1ccccc1)[C@H](CN(Cc1ccc(-c2ccccn2)cc1)NC(=O)[C@@H](NC(=O)OC)C(C)(C)C)OC(=O)CN(C)C(=O)[C@@H](N)Cc1ccccc1)C(C)(C)C.Cl.Cl` 1.9

* * *

# assay summary: physchem
# condition info: 30% CH3CN/HCl buffer, pH 1
# Description: Half life in pH 1 30%CH3CN/HCl buffer at 50 mM by RP-UPLC analysis
property name: half-life at 50000 µM (days)
Quick reminder: number only, in days, skip the unit.

Requested field: half-life at 50000 µM. Item: `COC(=O)N[C@H](C(=O)N[C@@H](Cc1ccccc1)[C@H](CN(Cc1ccc(-c2ccccn2)cc1)NC(=O)[C@@H](NC(=O)OC)C(C)(C)C)OC(=O)CN(C)C(=O)[C@H](Cc1ccccc1)N(C)C)C(C)(C)C` 15.7

And then `COC(=O)N[C@H](C(=O)N[C@@H](Cc1ccccc1)[C@H](CN(Cc1ccc(-c2ccccn2)cc1)NC(=O)[C@@H](NC(=O)OC)C(C)(C)C)OP(=O)(O)O)C(C)(C)C` , what is it? 13.9

* * *

# assay summary: Cmax in cannulated Sprague-Dawley rat assessed as (S)-(5S,10S,11S,14S)-11-Benzyl-5,14-di-tert-butyl-3,6,13,16-tetraoxo-8-(4-(pyridin-2-yl)benzyl)-2,17-dioxa-4,7,8,12,15-pentaazaoctadecan-10-yl 2-amino-3-methylbutanoate level at 3 mg/kg equiv of atazanavir administered orally by UPLC/MS/MS analysis
# Format: ADME, organism-based
# Parameters: dose 3 mg/kg, route oral
# condition info: in vivo, po
property name: Cmax

Requested field: Cmax. Item: `COC(=O)N[C@H](C(=O)N[C@@H](Cc1ccccc1)[C@H](CN(Cc1ccc(-c2ccccn2)cc1)NC(=O)[C@@H](NC(=O)OC)C(C)(C)C)OC(=O)[C@@H](NC(=O)[C@@H](N)C(C)C)C(C)C)C(C)(C)C` 30 nM

* * *

# assay summary: physchem
# condition info: HCl buffer, pH 1
# Description: Aqueous solubility of the compound in pH 1 HCl buffer by RP-UPLC analysis
Can you tell me solubility for the items I'm about to list?

Requested field: solubility. Item: `COC(=O)N[C@H](C(=O)N[C@@H](Cc1ccccc1)[C@H](CN(Cc1ccc(-c2ccccn2)cc1)NC(=O)[C@@H](NC(=O)OC)C(C)(C)C)OC(=O)[C@@H](N)Cc1c[nH]c2ccccc12)C(C)(C)C` > 1040 µg/mL

And then `COC(=O)N[C@H](C(=O)N[C@@H](Cc1ccccc1)[C@H](CN(Cc1ccc(-c2ccccn2)cc1)NC(=O)[C@@H](NC(=O)OC)C(C)(C)C)OC(=O)[C@H](NC(=O)[C@@H](N)C(C)C)C(C)C)C(C)(C)C` , what is it? > 1710 µg/mL

And then `COC(=O)N[C@H](C(=O)N[C@@H](Cc1ccccc1)[C@H](CN(Cc1ccc(-c2ccccn2)cc1)NC(=O)[C@@H](NC(=O)OC)C(C)(C)C)OC(=O)[C@@H](N)Cc1ccc(F)cc1)C(C)(C)C` , what is it? > 1380 µg/mL

And then `COC(=O)N[C@H](C(=O)N[C@@H](Cc1ccccc1)[C@H](CN(Cc1ccc(-c2ccccn2)cc1)NC(=O)[C@@H](NC(=O)OC)C(C)(C)C)OC(=O)CNC(=O)[C@H](N)Cc1ccccc1)C(C)(C)C` , what is it? > 2100 µg/mL

And then `COC(=O)N[C@H](C(=O)N[C@@H](Cc1ccccc1)[C@H](CN(Cc1ccc(-c2ccccn2)cc1)NC(=O)[C@@H](NC(=O)OC)C(C)(C)C)OC(=O)[C@H](N)CCSC)C(C)(C)C` , what is it? > 990 µg/mL

And then `CN[C@@H](Cc1ccccc1)C(=O)N(C)CC(=O)O[C@@H](CN(Cc1ccc(-c2ccccn2)cc1)NC(=O)[C@@H](NC(=O)OC)C(C)(C)C)[C@H](Cc1ccccc1)NC(=O)[C@@H](NC(=O)OC)C(C)(C)C` , what is it? > 2700 µg/mL

And then `COC(=O)N[C@H](C(=O)N[C@@H](Cc1ccccc1)[C@H](CN(Cc1ccc(-c2ccccn2)cc1)NC(=O)[C@@H](NC(=O)OC)C(C)(C)C)OC(=O)CNC(=O)[C@@H](N)Cc1ccccc1)C(C)(C)C` , what is it? > 2900 µg/mL

And then `COC(=O)N[C@H](C(=O)N[C@@H](Cc1ccccc1)[C@H](CN(Cc1ccc(-c2ccccn2)cc1)NC(=O)[C@@H](NC(=O)OC)C(C)(C)C)OC(=O)[C@@H](C)N)C(C)(C)C` , what is it? > 1300 µg/mL

And then `COC(=O)N[C@H](C(=O)N[C@@H](Cc1ccccc1)[C@H](CN(Cc1ccc(-c2ccccn2)cc1)NC(=O)[C@@H](NC(=O)OC)C(C)(C)C)OC(=O)CN(C)C(=O)[C@@H](N)Cc1ccccc1)C(C)(C)C.Cl.Cl` , what is it? 1170 µg/mL

And then `COC(=O)N[C@H](C(=O)N[C@@H](Cc1ccccc1)[C@H](CN(Cc1ccc(-c2ccccn2)cc1)NC(=O)[C@@H](NC(=O)OC)C(C)(C)C)OC(=O)[C@H](C)N)C(C)(C)C` , what is it? > 1300 µg/mL
